molecular target: UniProt P48736; assay: PI3K biochemical assay; details: read-out: IC50 (nM) PI3K-γ; ADP-Glo; ATP 10 μM
MEASURED_METRIC: IC50 (nM)
Respond numerically; units are nM and should not be typed.

IC50 value, target or system UniProt P48736, for COc1ccc(-c2cc(C(=O)NN=C(/C=C\c3ccc(Cl)cc3)c3ccc(N)cc3)c3ccccc3n2)cc1 : 52

* * *

target: class I PI3K enzymes; assay: PI3K biochemical assay, all isoforms stated jointly; conditions: read-out: IC50s against the different PI3K isoforms; range over PI3K-α, β, γ, δ
MEASURED_METRIC: IC50

>  <SMILES_CODE>
COc1ccc(-c2cc(C(=O)NN=C(/C=C\c3ccc(Cl)cc3)c3ccc(N)cc3)c3ccccc3n2)cc1

>  <RESULT_VALUE>
52 to 473 nM

$$$$

Here's the next entry for you.
Reported IC50 (class I PI3K enzymes) for entry Cc1ccc(-c2cc(C(=O)NN=C(/C=C\c3ccc(Cl)cc3)c3ccc(N)cc3)c3ccccc3n2)cc1 is 52 to 473 nM

* * *

// reported IC50 per item
system: chronic myeloid leukemia K-562; experiment: Trypan blue exclusion cytotoxicity assay; settings: read-out: K-562 (IC50 μM); trypan blue exclusion; 24 h; mean ± SD
Please give a number only; it is taken to be in µM.

These solved cases illustrate the format of a correct answer.
>  <MOLECULE>
Cc1ccc(-c2cc(C(=O)NN=C(/C=C\c3ccc(Cl)cc3)c3ccc(N)cc3)c3ccccc3n2)cc1

>  <MEASUREMENT_TARGET>
chronic myeloid leukemia K-562

>  <VALUE_UNITS>
µM

>  <IC50>
2.67

$$$$
>  <MOLECULE>
N.N.[Cl][Pt][Cl] [Cisplatin, reference compound]

>  <MEASUREMENT_TARGET>
chronic myeloid leukemia K-562

>  <VALUE_UNITS>
µM

>  <IC50>
2.71

$$$$
>  <MOLECULE>
COc1ccc(-c2cc(C(=O)NN=C(/C=C\c3ccccc3)c3ccc(N)cc3)c3cc(OC)ccc3n2)cc1

>  <MEASUREMENT_TARGET>
chronic myeloid leukemia K-562

>  <VALUE_UNITS>
µM

>  <IC50>
81.2

$$$$
>  <MOLECULE>
Nc1ccc(C(/C=C\c2ccccc2)=NNC(=O)c2cc(-c3ccccc3)nc3ccccc23)cc1

>  <MEASUREMENT_TARGET>
chronic myeloid leukemia K-562

>  <VALUE_UNITS>
µM

>  <IC50>
82.8

$$$$

Switching to the query record.
Summary for this molecule, Nc1ccc(C(/C=C\c2ccc(Cl)cc2)=NNC(=O)c2cc(-c3ccccc3)nc3ccccc23)cc1 : IC50 is 15.2

* * *

Some compounds, each annotated with its measured IC50.
system: chronic myeloid leukemia K-562; assay: Trypan blue exclusion cytotoxicity assay; conditions: Homo sapiens, K562, 24 h, read-out: K-562 (IC50 μM), trypan blue exclusion, mean ± SD
Hi! Could you send only the number? It should be in µM, unit omitted.

Consider the worked cases shown below.
>  <COMPOUND>
COc1ccc(-c2cc(C(=O)NN=C(/C=C\c3ccc(Cl)cc3)c3ccc(N)cc3)c3cc(OC)ccc3n2)cc1 [Compound 9l]

>  <MEASURED_METRIC>
IC50

>  <VALUE_UNITS>
µM

>  <RESULT_VALUE>
5.17

$$$$
>  <COMPOUND>
O=c1cc(N2CCOCC2)oc2c(-c3ccccc3)cccc12 [LY294002, reference compound]

>  <MEASURED_METRIC>
IC50

>  <VALUE_UNITS>
µM

>  <RESULT_VALUE>
2.68

$$$$
>  <COMPOUND>
COc1ccc(/C=C\C(=NNC(=O)c2cc(-c3ccccc3)nc3ccccc23)c2ccc(N)cc2)cc1 [Compound 9m]

>  <MEASURED_METRIC>
IC50

>  <VALUE_UNITS>
µM

>  <RESULT_VALUE>
60.7

$$$$

Reported IC50 ( COc1ccc(/C=C\C(=NNC(=O)c2cc(-c3ccc(OC)cc3)nc3ccc(OC)cc23)c2ccc(N)cc2)cc1 [Compound 9r] ) = 4.45

So, COc1ccc2nc(-c3ccc(Cl)cc3)cc(C(=O)NN=C(/C=C\c3ccccc3)c3ccc(N)cc3)c2c1 [Compound 9e] ? Its IC50 was 5.09

* * *

target: PI3K-γ (Homo sapiens, UniProt P48736); test: PI3K biochemical assay
Sequence (P48736 whole entry): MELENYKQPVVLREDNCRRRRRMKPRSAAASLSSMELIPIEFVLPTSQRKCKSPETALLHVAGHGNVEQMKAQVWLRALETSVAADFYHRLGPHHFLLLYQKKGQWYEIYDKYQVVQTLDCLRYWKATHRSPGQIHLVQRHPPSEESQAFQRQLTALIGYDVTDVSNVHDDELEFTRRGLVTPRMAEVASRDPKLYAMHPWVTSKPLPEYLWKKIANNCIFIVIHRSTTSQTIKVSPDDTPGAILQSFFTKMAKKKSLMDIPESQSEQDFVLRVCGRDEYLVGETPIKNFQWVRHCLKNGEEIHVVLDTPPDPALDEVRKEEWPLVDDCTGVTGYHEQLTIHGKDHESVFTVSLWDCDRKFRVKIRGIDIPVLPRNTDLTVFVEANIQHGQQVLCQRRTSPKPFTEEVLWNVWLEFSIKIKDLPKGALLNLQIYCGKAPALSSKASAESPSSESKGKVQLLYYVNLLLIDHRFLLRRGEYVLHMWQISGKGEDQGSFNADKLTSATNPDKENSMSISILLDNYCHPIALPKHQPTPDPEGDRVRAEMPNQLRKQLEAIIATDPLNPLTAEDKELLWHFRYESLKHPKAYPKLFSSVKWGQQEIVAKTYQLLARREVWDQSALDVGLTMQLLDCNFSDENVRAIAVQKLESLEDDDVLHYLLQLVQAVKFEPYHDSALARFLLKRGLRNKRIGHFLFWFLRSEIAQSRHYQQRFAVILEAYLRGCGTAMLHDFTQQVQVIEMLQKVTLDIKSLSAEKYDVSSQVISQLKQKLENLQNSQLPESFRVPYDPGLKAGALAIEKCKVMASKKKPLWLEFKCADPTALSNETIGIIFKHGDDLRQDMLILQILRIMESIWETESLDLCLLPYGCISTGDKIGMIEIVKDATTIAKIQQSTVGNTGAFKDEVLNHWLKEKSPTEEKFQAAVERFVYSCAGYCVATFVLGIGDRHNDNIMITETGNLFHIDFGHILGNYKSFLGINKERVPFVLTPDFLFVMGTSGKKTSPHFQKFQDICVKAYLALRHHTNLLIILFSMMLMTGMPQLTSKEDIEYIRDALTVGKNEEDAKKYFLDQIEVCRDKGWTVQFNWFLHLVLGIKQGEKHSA
MEASURED_METRIC: pIC50
Formally, pIC50 is defined as -log10 of the concentration c, with c in mol/L.

Field pIC50 (entry Cc1ccc(-c2cc(C(=O)NN=C(/C=C\c3ccc(Cl)cc3)c3ccc(N)cc3)c3ccccc3n2)cc1 ) reads 6.71

* * *

tested on: chronic myeloid leukemia K-562; assay: Trypan blue exclusion cytotoxicity assay; details: Homo sapiens, K562, 24 h, read-out: K-562 (IC50 μM), trypan blue exclusion, mean ± SD
Lab note: anything with IC50 below 9 µM is marked satisfied; values at 9 µM or higher are marked not satisfied.

See these solved cases before continuing.
>  <SMILES_CODE>
COc1ccc(-c2cc(C(=O)NN=C(/C=C\c3ccccc3)c3ccc(N)cc3)c3cc(OC)ccc3n2)cc1

>  <MEASUREMENT_TARGET>
chronic myeloid leukemia K-562

>  <CATEGORY>
not satisfied

$$$$
>  <SMILES_CODE>
COc1ccc(/C=C\C(=NNC(=O)c2cc(-c3ccc(C)cc3)nc3ccccc23)c2ccc(N)cc2)cc1

>  <MEASUREMENT_TARGET>
chronic myeloid leukemia K-562

>  <CATEGORY>
not satisfied

$$$$
>  <SMILES_CODE>
COc1ccc(/C=C\C(=NNC(=O)c2cc(-c3ccc(Cl)cc3)nc3ccc(OC)cc23)c2ccc(N)cc2)cc1

>  <MEASUREMENT_TARGET>
chronic myeloid leukemia K-562

>  <CATEGORY>
not satisfied

$$$$
>  <SMILES_CODE>
Cc1ccc(-c2cc(C(=O)NN=C(/C=C\c3ccccc3)c3ccc(N)cc3)c3ccccc3n2)cc1

>  <MEASUREMENT_TARGET>
chronic myeloid leukemia K-562

>  <CATEGORY>
satisfied

$$$$
>  <SMILES_CODE>
COc1ccc(/C=C\C(=NNC(=O)c2cc(-c3ccc(OC)cc3)nc3ccccc23)c2ccc(N)cc2)cc1

>  <MEASUREMENT_TARGET>
chronic myeloid leukemia K-562

>  <CATEGORY>
not satisfied

$$$$
>  <SMILES_CODE>
COc1ccc2nc(-c3ccc(Cl)cc3)cc(C(=O)NN=C(/C=C\c3ccc(OC)c(OC)c3)c3ccc(N)cc3)c2c1

>  <MEASUREMENT_TARGET>
chronic myeloid leukemia K-562

>  <CATEGORY>
not satisfied

$$$$
>  <SMILES_CODE>
Nc1ccc(C(/C=C\c2ccc(Cl)cc2)=NNC(=O)c2cc(-c3ccc(Cl)cc3)nc3ccccc23)cc1

>  <MEASUREMENT_TARGET>
chronic myeloid leukemia K-562

>  <CATEGORY>
satisfied

$$$$
>  <SMILES_CODE>
COc1ccc(-c2cc(C(=O)NN=C(/C=C\c3ccccc3)c3ccc(N)cc3)c3ccccc3n2)cc1

>  <MEASUREMENT_TARGET>
chronic myeloid leukemia K-562

>  <CATEGORY>
satisfied

$$$$

I wonder whether COc1ccc2nc(-c3ccc(Cl)cc3)cc(C(=O)NN=C(/C=C\c3ccc(Cl)cc3)c3ccc(N)cc3)c2c1 has IC50 below 9 µM. Can you tell?
not satisfied

Identify whether the compound Cc1ccc(-c2cc(C(=O)NN=C(/C=C\c3ccc(Cl)cc3)c3ccc(N)cc3)c3ccccc3n2)cc1 records IC50 below 9 µM.
satisfied

Is IC50 strictly under 9 µM for the entry Nc1ccc(C(/C=C\c2ccccc2)=NNC(=O)c2cc(-c3ccccc3)nc3ccccc23)cc1 ?
not satisfied

Hi there! Is IC50 for COc1ccc(/C=C\C(=NNC(=O)c2cc(-c3ccc(Cl)cc3)nc3ccccc23)c2ccc(N)cc2)cc1 below 9 µM, do you know?
not satisfied

Hi there! Is IC50 for COc1ccc(-c2cc(C(=O)NN=C(/C=C\c3ccc(OC)c(OC)c3)c3ccc(N)cc3)c3cc(OC)ccc3n2)cc1 below 9 µM, do you know?
not satisfied

In plain terms, does Nc1ccc(C(/C=C\c2ccc(Cl)cc2)=NNC(=O)c2cc(-c3ccccc3)nc3ccccc23)cc1 come in under 9 µM for IC50?
not satisfied

* * *

Form field: IC50 (one value per entry).
system: human lung adenocarcinoma A549; assay: Trypan blue exclusion cytotoxicity assay; conditions: read-out: A549 (IC50 μM); trypan blue exclusion; 24 h; mean ± SD
Provide the reading as a plain figure in µM.

Solved cases (5 shown):
>  <COMPOUND>
Nc1ccc(C(/C=C\c2ccc(Cl)cc2)=NNC(=O)c2cc(-c3ccccc3)nc3ccccc23)cc1

>  <MEASUREMENT_TARGET>
human lung adenocarcinoma A549

>  <MEASURED_METRIC>
IC50

>  <RESULT_VALUE>
18.5

$$$$
>  <COMPOUND>
Cc1ccc(-c2cc(C(=O)NN=C(/C=C\c3ccc(Cl)cc3)c3ccc(N)cc3)c3ccccc3n2)cc1

>  <MEASUREMENT_TARGET>
human lung adenocarcinoma A549

>  <MEASURED_METRIC>
IC50

>  <RESULT_VALUE>
5.29

$$$$
>  <COMPOUND>
COc1ccc(-c2cc(C(=O)NN=C(/C=C\c3ccccc3)c3ccc(N)cc3)c3cc(OC)ccc3n2)cc1

>  <MEASUREMENT_TARGET>
human lung adenocarcinoma A549

>  <MEASURED_METRIC>
IC50

>  <RESULT_VALUE>
91.4

$$$$
>  <COMPOUND>
N.N.[Cl][Pt][Cl] [Cisplatin, reference compound]

>  <MEASUREMENT_TARGET>
human lung adenocarcinoma A549

>  <MEASURED_METRIC>
IC50

>  <RESULT_VALUE>
15.3

$$$$
>  <COMPOUND>
Nc1ccc(C(/C=C\c2ccc(Cl)cc2)=NNC(=O)c2cc(-c3ccc(Cl)cc3)nc3ccccc23)cc1

>  <MEASUREMENT_TARGET>
human lung adenocarcinoma A549

>  <MEASURED_METRIC>
IC50

>  <RESULT_VALUE>
9.46

$$$$

So, Cc1ccc(-c2cc(C(=O)NN=C(/C=C\c3ccccc3)c3ccc(N)cc3)c3ccccc3n2)cc1 ? Its IC50 was 11.2
